Source: ChEMBL document CHEMBL1201862

system: NCI-H522; test: NCI tumour cell line growth inhibition, 48 h
The source made the active and inactive calls. Cut-off read from the data, not from the text of the source: active = GI50 up to about 1.1 µM and inactive = higher.
Bench note: report the call from Yes (active), No (inactive)

Record excerpt, results attached:
COMPOUND	GROUP LABEL
C/C(=C1/N=C(c2cc([N+](=O)[O-])ccc2Cl)N(c2ccc(Br)cc2)C1=O)c1cc2ccccc2oc1=O	No
CCOC(=O)C12CCCC1(O)N(NC(=O)OC)C(C)=C2C(=O)OC (configuration not stated)	No
Cc1ccc(SCC(CF)OC(C)n2cnc3c(Cl)nc(N)nc32)cc1 (configuration not stated)	No
C/C(=N\NC(=S)N1CCN(c2ccccn2)CC1)c1ccccn1	Yes
O=C(c1ccccc1)N(C(=O)c1ccccc1)c1nc(SCc2ccccc2)ns1	No

### Prompt Any idea what this test logged for C=Cc1cncc(C#N)c1CCc1c(C#N)cncc1C=C ?
### Response No

### Prompt Any idea what this test logged for CC(C)CNCCc1ccccn1 ?
### Response No

### Prompt Any idea what this test logged for CN(C)CC1CCCC(CN(C)C)C1=NOC(=O)c1ccccc1 (configuration not stated) ?
### Response No

### Prompt Any idea what this test logged for Cc1ncc(C/N=C/c2ccc(Cl)cc2)c(N)n1 ?
### Response No

### Prompt Any idea what this test logged for CCCNc1[nH]c(C(=O)c2ccccc2)c(N)c1C(=S)Nc1ccccc1 ?
### Response No

### Prompt Any idea what this test logged for CC1(C)OC2C(CO)OC(n3cnc(N)nc3=O)C2O1 (configuration not stated) ?
### Response No

### Prompt Any idea what this test logged for CCSc1c2ccccc2nc2c(OC)ccc(OC)c12 ?
### Response No

### Prompt Any idea what this test logged for Nc1nc(=O)c2c([nH]1)NCC(CCNc1ccc(C(=O)O)cc1)N2 (configuration not stated) ?
### Response No

### Prompt Any idea what this test logged for Cc1ccc(-c2c(C#N)c(-c3ccc(N(C)C)cc3)c(C#N)c(=O)n2NS(=O)(=O)c2ccccc2)cc1 ?
### Response No

### Prompt Any idea what this test logged for C=Cc1ccc(C)[n+](C[Si](C)(C)O[Si](C)(C)C[n+]2cc(C=C)ccc2C)c1 ?
### Response No

### Prompt Any idea what this test logged for CCC1(CN(C)C)CC/C(=C\c2ccc(OC)c(OC)c2)C1=O (configuration not stated) ?
### Response No
